ASSAY PROTOCOL: Cytotoxicity against THP1 cell cultures
Assay type: cell-based, human
SETTINGS: human, THP1 cells
MEASUREMENT TYPE: IC50

// NCCCC(N)(C(=O)O)C(F)F (stereo not shown) [DFMO, difluoromethylornithine, reference compound] : IC50 value = > 10 µg/mL
